Items are presented alongside their recorded growth.
test system: RXF 393 renal; assay: NCI-60 one-dose screen, 48 h (100 = growth as untreated, 0 = no growth, -100 = all killed); conditions: 10 µM unless noted
Compounds without any hit were thinned out: in the full panel of roughly 83,000, 20% have a hit.
Lab book: enter the figure in %, no units written.

Some compounds with known growth results, for comparison:
{"columns": ["compound", "numeric-value"],
 "data": [
  ["NC(N)=Nc1ccc(S(=O)(=O)O)cc1", 136],
  ["CNC(=O)c1cc(Oc2ccc3nc(NC(=O)Nc4ccc(N5CCC(N(C)C)CC5)cc4)sc3c2)ccn1", 61.5],
  ["CS(=O)(CCCCN=C=S)=NC(=O)c1c(F)c(F)c(F)c(F)c1F (stereo not given)", 94.2],
  ["CC(C)(C)n1cc(-c2ccnc(NCCCNS(=O)(=O)c3cccc4ccccc34)c2)c(-c2cccc(O)c2)n1", 0.843]
]}

Lookup result for CCOC(=O)C(Cc1cc(I)c(O)c(I)c1)NC(=O)c1ccccc1 (stereo not given) ; measured growth: 99.1
